- assay_comment: Stability test in thermostated heaters at 25° C. and 60% R.H., active ingredient %
- Type: physicochemical
- test_parameters: heat-sealed aluminium/aluminium bags, 360 days
assay_endpoint: stability test percentage value (active ingredient %), 360 days

compound	value_observed
C[S+](CCC(N)C(=O)[O-])C[C@H]1O[C@@H](n2cnc3c(N)ncnc32)[C@H](O)[C@@H]1O.C[S+](CCC(N)C(=O)[O-])C[C@H]1O[C@@H](n2cnc3c(N)ncnc32)[C@H](O)[C@@H]1O.O=S(=O)(O)O.[Ca+2].[Cl-].[Cl-] (some centres unmarked)	0.78%
C[S+](CCC(N)C(=O)[O-])C[C@H]1O[C@@H](n2cnc3c(N)ncnc32)[C@H](O)[C@@H]1O.O=S(=O)(O)O.O=S(=O)(O)O.[Ca+2].[Cl-].[Cl-] (some centres unmarked)	0.68%

###

- assay_comment: Stability test in thermostated heaters at 25° C. and 60% R.H., active ingredient %
- Format: physicochemical
- test_parameters: heat-sealed aluminium/aluminium bags, 30 days
assay_endpoint: stability test percentage value (active ingredient %), 30 days

molecule	value_observed
C[S+](CCC(N)C(=O)[O-])C[C@H]1O[C@@H](n2cnc3c(N)ncnc32)[C@H](O)[C@@H]1O.C[S+](CCC(N)C(=O)[O-])C[C@H]1O[C@@H](n2cnc3c(N)ncnc32)[C@H](O)[C@@H]1O.O=S(=O)(O)O.[Ca+2].[Cl-].[Cl-] (stereo partly shown) [SAMe•0.5H2SO4•0.5CaCl2]	0.23
C[S+](CCC(N)C(=O)[O-])C[C@H]1O[C@@H](n2cnc3c(N)ncnc32)[C@H](O)[C@@H]1O.C[S+](CCC(N)C(=O)[O-])C[C@H]1O[C@@H](n2cnc3c(N)ncnc32)[C@H](O)[C@@H]1O.Cl.[Cl-].[Cl-].[Mg+2] (stereo partly shown) [SAMe•0.5HCl•0.5MgCl2]	0.35
C[S+](CCC(N)C(=O)[O-])C[C@H]1O[C@@H](n2cnc3c(N)ncnc32)[C@H](O)[C@@H]1O.Cl.Cl.[Cl-].[Cl-].[Mg+2] (stereo partly shown) [SAMe•2.0HCl•1.0MgCl2]	0.17
C[S+](CCC(N)C(=O)[O-])C[C@H]1O[C@@H](n2cnc3c(N)ncnc32)[C@H](O)[C@@H]1O.C[S+](CCC(N)C(=O)[O-])C[C@H]1O[C@@H](n2cnc3c(N)ncnc32)[C@H](O)[C@@H]1O.Cl.O=S(=O)([O-])[O-].[Mg+2] (stereo partly shown) [SAMe•0.5HCl•0.5MgSO4]	0.31

###

- assay_comment: Degradation of the active stereoisomer S,S at 40° C. and 75% R.H.
- Type: physicochemical
- test_parameters: 120 days
A collection of compounds and their measured percentage of active S,S stereoisomer remaining
assay_endpoint: percentage of active S,S stereoisomer remaining (%)

compound	value_observed
C[S+](CCC(N)C(=O)[O-])C[C@H]1O[C@@H](n2cnc3c(N)ncnc32)[C@H](O)[C@@H]1O.Cl.Cl.O=S(=O)([O-])[O-].[Mg+2] (stereo partly shown) [SAMe•2.0HCl•1.0MgSO4]	79.1
C[S+](CCC(N)C(=O)[O-])C[C@H]1O[C@@H](n2cnc3c(N)ncnc32)[C@H](O)[C@@H]1O.O=S(=O)(O)O.O=S(=O)(O)O.[Cl-].[Cl-].[Mg+2] (stereo partly shown) [SAMe•2.0H2SO4•1.0MgCl2]	89.3
C[S+](CCC(N)C(=O)[O-])C[C@H]1O[C@@H](n2cnc3c(N)ncnc32)[C@H](O)[C@@H]1O.C[S+](CCC(N)C(=O)[O-])C[C@H]1O[C@@H](n2cnc3c(N)ncnc32)[C@H](O)[C@@H]1O.O=S(=O)(O)O.[Ca+2].[Cl-].[Cl-] (stereo partly shown) [SAMe•0.5H2SO4•0.5CaCl2]	80.6
C[S+](CCC(N)C(=O)[O-])C[C@H]1O[C@@H](n2cnc3c(N)ncnc32)[C@H](O)[C@@H]1O.C[S+](CCC(N)C(=O)[O-])C[C@H]1O[C@@H](n2cnc3c(N)ncnc32)[C@H](O)[C@@H]1O.Cl.[Cl-].[Cl-].[Mg+2] (stereo partly shown) [SAMe•0.5HCl•0.5MgCl2]	82.6
C[S+](CCC(N)C(=O)[O-])C[C@H]1O[C@@H](n2cnc3c(N)ncnc32)[C@H](O)[C@@H]1O.O=S(=O)(O)O.O=S(=O)(O)O.O=S(=O)([O-])[O-].[Mg+2] (stereo partly shown) [SAMe•2.0H2SO4•1.0Mg2SO4•0.4H2O]	81.3
C[S+](CCC(N)C(=O)[O-])C[C@H]1O[C@@H](n2cnc3c(N)ncnc32)[C@H](O)[C@@H]1O.O=S(=O)(O)O.O=S(=O)(O)O.[Ca+2].[Cl-].[Cl-] (stereo partly shown) [SAMe•2.0H2SO4•1.0CaCl2]	79.3
C[S+](CCC(N)C(=O)[O-])C[C@H]1O[C@@H](n2cnc3c(N)ncnc32)[C@H](O)[C@@H]1O.Cl.Cl.[Cl-].[Cl-].[Mg+2] (stereo partly shown) [SAMe•2.0HCl•1.0MgCl2]	82.1
C[S+](CCC(N)C(=O)[O-])C[C@H]1O[C@@H](n2cnc3c(N)ncnc32)[C@H](O)[C@@H]1O.C[S+](CCC(N)C(=O)[O-])C[C@H]1O[C@@H](n2cnc3c(N)ncnc32)[C@H](O)[C@@H]1O.O=S(=O)(O)O.[Cl-].[Cl-].[Mg+2] (stereo partly shown) [SAMe•0.5H2SO4•0.5MgCl2]	80.6
C[S+](CCC(N)C(=O)[O-])C[C@H]1O[C@@H](n2cnc3c(N)ncnc32)[C@H](O)[C@@H]1O.C[S+](CCC(N)C(=O)[O-])C[C@H]1O[C@@H](n2cnc3c(N)ncnc32)[C@H](O)[C@@H]1O.Cl.O=S(=O)([O-])[O-].[Mg+2] (stereo partly shown) [SAMe•0.5HCl•0.5MgSO4]	89.6
C[S+](CCC(N)C(=O)[O-])C[C@H]1O[C@@H](n2cnc3c(N)ncnc32)[C@H](O)[C@@H]1O.C[S+](CCC(N)C(=O)[O-])C[C@H]1O[C@@H](n2cnc3c(N)ncnc32)[C@H](O)[C@@H]1O.O=S(=O)(O)O.O=S(=O)([O-])[O-].[Mg+2] (stereo partly shown) [SAMe•0.5H2SO4•0.5Mg2SO4•0.4H2O]	82.6

###

- assay_comment: Stability test in thermostated heaters at 40° C. and 75% R.H., active ingredient %
- Assay type: physicochemical
- test_parameters: heat-sealed aluminium/aluminium bags, 180 days
assay_endpoint: stability test percentage value (active ingredient %), 180 days

compound	value_observed
C[S+](CCC(N)C(=O)[O-])C[C@H]1O[C@@H](n2cnc3c(N)ncnc32)[C@H](O)[C@@H]1O.O=S(=O)(O)O.O=S(=O)(O)O.[Ca+2].[Cl-].[Cl-] (stereo partly drawn)	2.70
C[S+](CCC(N)C(=O)[O-])C[C@H]1O[C@@H](n2cnc3c(N)ncnc32)[C@H](O)[C@@H]1O.C[S+](CCC(N)C(=O)[O-])C[C@H]1O[C@@H](n2cnc3c(N)ncnc32)[C@H](O)[C@@H]1O.O=S(=O)(O)O.[Ca+2].[Cl-].[Cl-] (stereo partly drawn)	3.99
C[S+](CCC(N)C(=O)[O-])C[C@H]1O[C@@H](n2cnc3c(N)ncnc32)[C@H](O)[C@@H]1O.O=S(=O)(O)O.O=S(=O)(O)O.[Cl-].[Cl-].[Mg+2] (stereo partly drawn)	1.87
C[S+](CCC(N)C(=O)[O-])C[C@H]1O[C@@H](n2cnc3c(N)ncnc32)[C@H](O)[C@@H]1O.Cl.Cl.[Cl-].[Cl-].[Mg+2] (stereo partly drawn) [SAMe•2.0HCl•1.0MgCl2]	1.89
C[S+](CCC(N)C(=O)[O-])C[C@H]1O[C@@H](n2cnc3c(N)ncnc32)[C@H](O)[C@@H]1O.C[S+](CCC(N)C(=O)[O-])C[C@H]1O[C@@H](n2cnc3c(N)ncnc32)[C@H](O)[C@@H]1O.Cl.O=S(=O)([O-])[O-].[Mg+2] (stereo partly drawn) [SAMe•0.5HCl•0.5MgSO4]	2.78
C[S+](CCC(N)C(=O)[O-])C[C@H]1O[C@@H](n2cnc3c(N)ncnc32)[C@H](O)[C@@H]1O.O=S(=O)(O)O.O=S(=O)(O)O.O=S(=O)([O-])[O-].[Mg+2] (stereo partly drawn)	1.59

###

A collection of compounds and their measured percentage of the active S,S stereoisomer remaining
- assay_comment: Degradation of the active stereoisomer S,S at 25° C. and 65% R.H.
- Format: physicochemical
- test_parameters: 30 days
assay_endpoint: percentage of the active S,S stereoisomer remaining (%)

compound	measurement_unit	value_observed
C[S+](CCC(N)C(=O)[O-])C[C@H]1O[C@@H](n2cnc3c(N)ncnc32)[C@H](O)[C@@H]1O.O=S(=O)(O)O.O=S(=O)(O)O.O=S(=O)([O-])[O-].[Mg+2] (some centres unmarked)	%	97.3
C[S+](CCC(N)C(=O)[O-])C[C@H]1O[C@@H](n2cnc3c(N)ncnc32)[C@H](O)[C@@H]1O.Cl.Cl.[Cl-].[Cl-].[Mg+2] (some centres unmarked) [SAMe•2.0HCl•1.0MgCl2]	%	96.6
C[S+](CCC(N)C(=O)[O-])C[C@H]1O[C@@H](n2cnc3c(N)ncnc32)[C@H](O)[C@@H]1O.C[S+](CCC(N)C(=O)[O-])C[C@H]1O[C@@H](n2cnc3c(N)ncnc32)[C@H](O)[C@@H]1O.O=S(=O)(O)O.[Ca+2].[Cl-].[Cl-] (some centres unmarked)	%	97.8
C[S+](CCC(N)C(=O)[O-])C[C@H]1O[C@@H](n2cnc3c(N)ncnc32)[C@H](O)[C@@H]1O.O=S(=O)(O)O.O=S(=O)(O)O.[Cl-].[Cl-].[Mg+2] (some centres unmarked)	%	96.3
C[S+](CCC(N)C(=O)[O-])C[C@H]1O[C@@H](n2cnc3c(N)ncnc32)[C@H](O)[C@@H]1O.Cl.Cl.O=S(=O)([O-])[O-].[Mg+2] (some centres unmarked) [SAMe•2.0HCl•1.0MgSO4]	%	86.5

Data provenance is patent US8258115B2.
